Where do the numbers come from? From ChEMBL document CHEMBL3739277.

System: Escherichia coli
Assay: Antibacterial activity against Escherichia coli JM109 assessed as growth inhibition incubated at 37 degC for 24 hrs by micro broth dilution method
Format: functional
Conditions: JM109, 24 h
quantity.kind: MIC (µg/mL)
Respond with the bare value in µg/mL.

Give recorded MIC with Escherichia coli for the following compound: NC1CCN(c2c(F)cc3c(=O)c(C(=O)O)cn(C4CC4)c3c2Cl)C1 (centres undefined)
1

Give recorded MIC with Escherichia coli for the following compound: CCn1cc(C(=O)O)c(=O)c2cc(F)c(N3CCN(CC(O)CSc4nccn4C)CC3)cc21 (centres undefined)
8

Give recorded MIC with Escherichia coli for the following compound: Cn1nnnc1SCC(O)CN1CCN(c2cc3c(cc2F)c(=O)c(C(=O)O)cn3C2CC2)CC1 (centres undefined)
8

Give recorded MIC with Escherichia coli for the following compound: CCn1cc(C(=O)O)c(=O)c2cc(F)c(N3CCNCC3)cc21
2

----------
Test: Antifungal activity against Candida mycoderma ATCC9888 assessed as growth inhibition incubated at 35 degC for 24 hrs by micro broth dilution method
Format: functional
Conditions: Kregervanrija fluxuum
quantity.kind: MIC80 (µg/mL)
Respond with the bare value in µg/mL.

# input compound: Cn1nnnc1SCC(O)CN1CCN(c2cc3c(cc2F)c(=O)c(C(=O)O)cn3C2CC2)CC1 (stereo not drawn) ; wanted: its MIC80
16

# input compound: CCn1cc(C(=O)O)c(=O)c2cc(F)c(N3CCN(CC(O)CSc4ncn(Cc5ccc(Cl)cc5Cl)n4)CC3)cc21 (stereo not drawn) ; wanted: its MIC80
64

# input compound: Cn1ccnc1SCC(O)CN1CCN(c2cc3c(cc2F)c(=O)c(C(=O)O)cn3C2CC2)CC1 (stereo not drawn) ; wanted: its MIC80
16

----------
System: Escherichia coli
Assay: Antibacterial activity against Escherichia coli JM109 assessed as growth inhibition incubated at 37 degC for 24 hrs by micro broth dilution method
Assay type: functional
Conditions: JM109, 24 h
quantity.kind: MIC (µg/mL)
Respond with the bare value in µg/mL.

# input molecule: CCn1cc(C(=O)O)c(=O)c2cc(F)c(N3CCN(CC(O)CSc4nnnn4C)CC3)cc21 (stereo not drawn) ; wanted: its MIC
8

# input molecule: O=C(O)c1cn(C2CC2)c2cc(N3CCN(CC(O)CSc4ncn(Cc5ccc(Cl)cc5Cl)n4)CC3)c(F)cc2c1=O (stereo not drawn) ; wanted: its MIC
2

# input molecule: Cn1ccnc1SCC(O)CNC1CCN(c2c(F)cc3c(=O)c(C(=O)O)cn(C4CC4)c3c2Cl)C1 (stereo not drawn) ; wanted: its MIC
1

# input molecule: Sc1ncn(Cc2ccc(Cl)cc2Cl)n1 ; wanted: its MIC
256

# input molecule: O=C(O)c1cn(C2CC2)c2c(Cl)c(N3CCC(NCC(O)CSc4ncn(Cc5ccc(Cl)cc5Cl)n4)C3)c(F)cc2c1=O (stereo not drawn) ; wanted: its MIC
1

# input molecule: O=C(O)c1cn(C2CC2)c2c(Cl)c(N3CCC(NCC(O)CSc4ncn(Cc5ccc(Cl)c(Cl)c5)n4)C3)c(F)cc2c1=O (stereo not drawn) ; wanted: its MIC
1

# input molecule: O=C(O)c1cn(C2CC2)c2c(Cl)c(N3CCC(NCC4CO4)C3)c(F)cc2c1=O (stereo not drawn) ; wanted: its MIC
0.5

# input molecule: CCn1cc(C(=O)O)c(=O)c2cc(F)c(N3CCN(CC(O)CSc4ncn(Cc5ccc(Cl)c(Cl)c5)n4)CC3)cc21 (stereo not drawn) ; wanted: its MIC
16

# input molecule: CCn1cc(C(=O)O)c(=O)c2cc(F)c(N3CCN(CC(O)CSc4ncn(Cc5ccc(Cl)cc5Cl)n4)CC3)cc21 (stereo not drawn) ; wanted: its MIC
8

# input molecule: O=C(O)c1cn(C2CC2)c2cc(N3CCN(CC(O)CSc4ncn(Cc5ccc(Cl)c(Cl)c5)n4)CC3)c(F)cc2c1=O (stereo not drawn) ; wanted: its MIC
1

# input molecule: O=C(O)c1cn(C2CC2)c2c(Cl)c(N3CCC(NCC(O)Cn4cnc(S)n4)C3)c(F)cc2c1=O (stereo not drawn) ; wanted: its MIC
1

# input molecule: Cn1nnnc1SCC(O)CNC1CCN(c2c(F)cc3c(=O)c(C(=O)O)cn(C4CC4)c3c2Cl)C1 (stereo not drawn) ; wanted: its MIC
1

# input molecule: O=C(O)c1cn(C2CC2)c2cc(N3CCN(CC4CO4)CC3)c(F)cc2c1=O (stereo not drawn) ; wanted: its MIC
1

# input molecule: Sc1ncn(Cc2ccc(Cl)c(Cl)c2)n1 ; wanted: its MIC
256

# input molecule: CCn1cc(C(=O)O)c(=O)c2cc(F)c(N3CCN(CC4CO4)CC3)cc21 (stereo not drawn) ; wanted: its MIC
2

# input molecule: Cn1ccnc1SCC(O)CN1CCN(c2cc3c(cc2F)c(=O)c(C(=O)O)cn3C2CC2)CC1 (stereo not drawn) ; wanted: its MIC
8

# input molecule: CCn1cc(C(=O)O)c(=O)c2cc(F)c(N3CCN(CC(O)Cn4cnc(S)n4)CC3)cc21 (stereo not drawn) ; wanted: its MIC
64

# input molecule: O=C(O)c1cn(C2CC2)c2cc(N3CCN(CC(O)Cn4cnc(S)n4)CC3)c(F)cc2c1=O (stereo not drawn) ; wanted: its MIC
8

----------
Consider the following compounds; for each one, report its MIC80.
Tested on: Aspergillus flavus
Experiment: Antifungal activity against Aspergillus flavus ATCC204304 assessed as growth inhibition incubated at 35 degC for 24 hrs by micro broth dilution method
Assay type: functional
Settings: ATCC204304, 24 h
Respond with the bare value in µg/mL.

# input compound: Cn1ccnc1SCC(O)CN1CCN(c2cc3c(cc2F)c(=O)c(C(=O)O)cn3C2CC2)CC1 (stereo not drawn) ; wanted: its MIC80
64

# input compound: O=C(O)c1cn(C2CC2)c2cc(N3CCN(CC(O)CSc4ncn(Cc5ccc(Cl)c(Cl)c5)n4)CC3)c(F)cc2c1=O (stereo not drawn) ; wanted: its MIC80
16

# input compound: O=C(O)c1cn(C2CC2)c2c(Cl)c(N3CCC(NCC(O)Cn4cnc(S)n4)C3)c(F)cc2c1=O (stereo not drawn) ; wanted: its MIC80
8

# input compound: O=C(O)c1cn(C2CC2)c2cc(N3CCN(CC4CO4)CC3)c(F)cc2c1=O (stereo not drawn) ; wanted: its MIC80
1

# input compound: CCn1cc(C(=O)O)c(=O)c2cc(F)c(N3CCN(CC(O)CSc4ncn(Cc5ccc(Cl)cc5Cl)n4)CC3)cc21 (stereo not drawn) ; wanted: its MIC80
4

# input compound: O=C(O)c1cn(C2CC2)c2c(Cl)c(N3CCC(NCC4CO4)C3)c(F)cc2c1=O (stereo not drawn) ; wanted: its MIC80
0.5

# input compound: O=C(O)c1cn(C2CC2)c2cc(N3CCN(CC(O)CSc4ncn(Cc5ccc(Cl)cc5Cl)n4)CC3)c(F)cc2c1=O (stereo not drawn) ; wanted: its MIC80
16

# input compound: Sc1ncn(Cc2ccc(Cl)c(Cl)c2)n1 ; wanted: its MIC80
512

----------
Consider the following compounds; for each one, report its MIC80.
Experiment: Antifungal activity against Candida mycoderma ATCC9888 assessed as growth inhibition incubated at 35 degC for 24 hrs by micro broth dilution method
Type: functional
Conditions: Kregervanrija fluxuum

# input compound: CCn1cc(C(=O)O)c(=O)c2cc(F)c(N3CCN(CC(O)CSc4nccn4C)CC3)cc21 (stereo not drawn) ; wanted: its MIC80
64 µg/mL

# input compound: O=C(O)c1cn(C2CC2)c2cc(N3CCN(CC(O)CSc4ncn(Cc5ccc(Cl)cc5Cl)n4)CC3)c(F)cc2c1=O (stereo not drawn) ; wanted: its MIC80
16 µg/mL

# input compound: CCn1cc(C(=O)O)c(=O)c2cc(F)c(N3CCN(CC(O)Cn4cnc(S)n4)CC3)cc21 (stereo not drawn) ; wanted: its MIC80
128 µg/mL

# input compound: Sc1ncn(Cc2ccc(Cl)cc2Cl)n1 ; wanted: its MIC80
128 µg/mL

# input compound: O=C(O)c1cn(C2CC2)c2c(Cl)c(N3CCC(NCC(O)CSc4ncn(Cc5ccc(Cl)c(Cl)c5)n4)C3)c(F)cc2c1=O (stereo not drawn) ; wanted: its MIC80
1 µg/mL

# input compound: O=C(O)c1cn(C2CC2)c2cc(N3CCN(CC(O)CSc4ncn(Cc5ccc(Cl)c(Cl)c5)n4)CC3)c(F)cc2c1=O (stereo not drawn) ; wanted: its MIC80
8 µg/mL

# input compound: CCn1cc(C(=O)O)c(=O)c2cc(F)c(N3CCN(CC4CO4)CC3)cc21 (stereo not drawn) ; wanted: its MIC80
1 µg/mL

# input compound: CCn1cc(C(=O)O)c(=O)c2cc(F)c(N3CCN(CC(O)CSc4nnnn4C)CC3)cc21 (stereo not drawn) ; wanted: its MIC80
64 µg/mL

# input compound: OC(Cn1cncn1)(Cn1cncn1)c1ccc(F)cc1F ; wanted: its MIC80
4 µg/mL

# input compound: O=C(O)c1cn(C2CC2)c2c(Cl)c(N3CCC(NCC4CO4)C3)c(F)cc2c1=O (stereo not drawn) ; wanted: its MIC80
2 µg/mL

# input compound: Sc1ncn(Cc2ccc(Cl)c(Cl)c2)n1 ; wanted: its MIC80
256 µg/mL

# input compound: Cn1nnnc1SCC(O)CNC1CCN(c2c(F)cc3c(=O)c(C(=O)O)cn(C4CC4)c3c2Cl)C1 (stereo not drawn) ; wanted: its MIC80
1 µg/mL

# input compound: O=C(O)c1cn(C2CC2)c2cc(N3CCN(CC(O)Cn4cnc(S)n4)CC3)c(F)cc2c1=O (stereo not drawn) ; wanted: its MIC80
32 µg/mL

# input compound: O=C(O)c1cn(C2CC2)c2c(Cl)c(N3CCC(NCC(O)CSc4ncn(Cc5ccc(Cl)cc5Cl)n4)C3)c(F)cc2c1=O (stereo not drawn) ; wanted: its MIC80
4 µg/mL

# input compound: O=C(O)c1cn(C2CC2)c2c(Cl)c(N3CCC(NCC(O)Cn4cnc(S)n4)C3)c(F)cc2c1=O (stereo not drawn) ; wanted: its MIC80
8 µg/mL

# input compound: O=C(O)c1cn(C2CC2)c2cc(N3CCN(CC4CO4)CC3)c(F)cc2c1=O (stereo not drawn) ; wanted: its MIC80
1 µg/mL

# input compound: CCn1cc(C(=O)O)c(=O)c2cc(F)c(N3CCN(CC(O)CSc4ncn(Cc5ccc(Cl)c(Cl)c5)n4)CC3)cc21 (stereo not drawn) ; wanted: its MIC80
128 µg/mL

# input compound: Cn1ccnc1SCC(O)CNC1CCN(c2c(F)cc3c(=O)c(C(=O)O)cn(C4CC4)c3c2Cl)C1 (stereo not drawn) ; wanted: its MIC80
1 µg/mL
